Listed here: items and their measured melting point.

Please review the following examples before continuing.
> print(dat)
                                   compound            val
1  CC(C)C(NC(N)=O)C(=O)O (centres undefined)  203 to 207 °C
2         COC(=O)N(C)c1ccc([N+](=O)[O-])cc1  108 to 110 °C
3                    O=C(Cc1ccccn1)c1cccnc1    66 to 68 °C

Consider the additional compound presented here.
What the record says about N#CCc1ccc(OCC2CO2)cc1 (centres undefined) : melting point is 52 to 54 °C

----------
Value Kind: melting point

> print(dat)
                              compound     value.kind            val
1                    NCc1ccc2c(c1)CCO2  melting point    38 to 40 °C
2  Cc1n[nH]c(C)c1S(=O)(=O)N(C)Cc1ccco1  melting point  160 to 163 °C
3            N#Cc1ccc(Oc2cccc(N)c2)nc1  melting point  112 to 114 °C
4    Cc1ccc(-c2nn(CCC#N)cc2C(=O)O)cc1C  melting point  174 to 176 °C

melting point reported for this compound Cc1sc(C(=O)O)cc1S(N)(=O)=O : 249 to 251 °C

Please fill in: melting point reported for OC(C1CCCCN1)C(F)(F)F (centres undefined) = 94 to 96 °C
